study.target: T1, human CD33 extracellular domain (human, UniProt P20138 18-259)
T1 construct: soluble monomeric ECD; also called human CD33 ECD; hCD33
protocol.description: SPR, Fab captured, 37C;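 further: fabs captured on an anti-Fab surface, soluble monomeric CD33 ECD flowed over at several concentrations, double-referenced curves fit to a 1:1 binding model, KD taken as koff/kon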
Consider the following binders and their measured kon readings.
# unit: M⁻¹ s⁻¹ | format: bare number

See these solved cases before continuing.
| binder | kon (M⁻¹ s⁻¹) |
| --- | --- |
| ADI-11835 Fab (Fab, V domains shown, Fab fragment; also called Ab10; I35) VH: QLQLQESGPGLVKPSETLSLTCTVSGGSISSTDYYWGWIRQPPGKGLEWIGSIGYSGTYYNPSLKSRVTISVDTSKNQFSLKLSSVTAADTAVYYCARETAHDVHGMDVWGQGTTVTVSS VL: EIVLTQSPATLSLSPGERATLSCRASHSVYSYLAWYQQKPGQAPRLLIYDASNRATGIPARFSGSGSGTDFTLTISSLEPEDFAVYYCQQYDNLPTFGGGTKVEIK | 2.6e+06 |
| ADI-11809 Fab (Fab, V domains shown, Fab fragment; also called Ab6) VH: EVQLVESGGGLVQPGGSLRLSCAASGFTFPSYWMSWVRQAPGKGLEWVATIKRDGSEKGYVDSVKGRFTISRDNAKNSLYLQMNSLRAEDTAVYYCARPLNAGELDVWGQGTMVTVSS VL: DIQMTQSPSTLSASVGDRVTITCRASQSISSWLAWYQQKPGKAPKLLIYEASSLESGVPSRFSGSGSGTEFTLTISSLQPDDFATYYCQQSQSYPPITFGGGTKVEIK | 1.02e+06 |

Below: the item to evaluate.
Q: Request the reported kon associated with ADI-11812 Fab (Fab, V domains shown, Fab fragment; also called Ab24) VH: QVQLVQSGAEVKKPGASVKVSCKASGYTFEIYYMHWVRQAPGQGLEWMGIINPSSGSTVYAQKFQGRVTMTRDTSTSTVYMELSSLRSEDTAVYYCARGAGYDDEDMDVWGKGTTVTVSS VL: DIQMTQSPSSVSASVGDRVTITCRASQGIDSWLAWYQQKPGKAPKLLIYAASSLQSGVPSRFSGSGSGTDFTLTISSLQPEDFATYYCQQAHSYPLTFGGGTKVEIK
Ans: 396000
